# assayed system: T1, human TL1A extracellular domain with N-terminal HIS and FLAG tag (human, UniProt O95150 72-251)
# T1 construct: the whole entry is named
# T1 sequence: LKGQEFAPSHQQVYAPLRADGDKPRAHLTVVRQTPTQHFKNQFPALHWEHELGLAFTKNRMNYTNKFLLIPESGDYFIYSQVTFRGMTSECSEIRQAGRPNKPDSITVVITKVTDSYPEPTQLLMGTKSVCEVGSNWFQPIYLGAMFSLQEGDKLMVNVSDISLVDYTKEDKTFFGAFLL
# assay remarks: SPR Run 5, Ab from supernatant captured on Protein A, TL1A 5 ug/mL, timepoint 220
quantity measured: TL1A Binding Level (Late) (RU)
Write the value in RU as a bare number.

{"binder": "320-396 (antibody, human IgG1, name in Kabat numbering, V domains shown, human IgG1, lambda) VH: QVQLVQSGAEVKKPGASVKVSCKASYYTFTSYDINWVRQAPGQGLEWMGWLNPNSGNTGYAQKFQGRVTMTADRSTSTAYMELSSLRSEDTAVYYCAREVPETAAFEYWGQGTLVTVSS VL: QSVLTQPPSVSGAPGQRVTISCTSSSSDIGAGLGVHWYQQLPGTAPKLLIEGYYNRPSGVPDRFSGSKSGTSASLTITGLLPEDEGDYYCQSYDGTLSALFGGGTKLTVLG", "TL1A Binding Level (Late) [RU]": 11}

Challenge: Consider the binder shown here: 320-394 (antibody, human IgG1, name in Kabat numbering, V domains shown, human IgG1, lambda) VH: QVQLVQSGAEVKKPGASVKVSCKASLYTFTSYDINWVRQAPGQGLEWMGWLNPNSGNTGYAQKFQGRVTMTADRSTSTAYMELSSLRSEDTAVYYCAREVPETAAFEYWGQGTLVTVSS VL: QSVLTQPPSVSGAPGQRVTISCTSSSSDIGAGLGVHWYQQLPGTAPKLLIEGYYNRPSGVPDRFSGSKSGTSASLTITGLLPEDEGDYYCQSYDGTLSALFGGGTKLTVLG What is its recorded TL1A Binding Level (Late)?
Response given: 12

Challenge: Likewise for 320-406 (antibody, human IgG1, name in Kabat numbering, V domains shown, human IgG1, lambda) VH: QVQLVQSGAEVKKPGASVKVSCKASGYQFTSYDINWVRQAPGQGLEWMGWLNPNSGNTGYAQKFQGRVTMTADRSTSTAYMELSSLRSEDTAVYYCAREVPETAAFEYWGQGTLVTVSS VL: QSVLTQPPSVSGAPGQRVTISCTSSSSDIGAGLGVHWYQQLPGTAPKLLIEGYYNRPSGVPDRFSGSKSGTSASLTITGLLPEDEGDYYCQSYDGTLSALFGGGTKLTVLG ?
Response given: 7
